Biological target: CIB1 and αIIb interaction (CIB1-GST : F-αIIb peptide) (Homo sapiens)
Construct: made in house; host or cells: BL-21 plus RIL cells (E. coli)
Sequence (Q99828 whole entry): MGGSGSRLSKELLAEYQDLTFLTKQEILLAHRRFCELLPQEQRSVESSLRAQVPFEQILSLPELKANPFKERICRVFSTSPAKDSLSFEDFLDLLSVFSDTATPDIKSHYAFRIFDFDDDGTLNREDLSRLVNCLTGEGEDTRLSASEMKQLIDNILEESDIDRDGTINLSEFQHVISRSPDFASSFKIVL
Experiment: FP assay, 1536-well qHTS format (primary and confirmatory screen)
Type: binding
Conditions: qHTS primary screen hits, Table S2; negative sign = inhibitory curve; several classes where COUNT > 1
Returns one of y or n; y when Curve Class is >= -2.

Please review the entries below; each comes with its answer.
Cc1ccc([N+](=O)[O-])[c]2c1[O][Hg]2: y
Cc1ccc(OCCn2c3c(c4ccccc42)CN(C(=O)C2CCCCC2)CC3)cc1.O=C(O)C(F)(F)F: n
Fc1cc(Nc2nc(-c3ccncc3)nc3ccccc23)ccc1N1CCNCC1.O=C(O)C(F)(F)F: n
O=C(NC(c1ccco1)c1cc(Cl)c2cccnc2c1O)c1cccs1.O=C(O)C(F)(F)F (stereo not shown): y
O=C(O)C(F)(F)F.O=C(O)c1ccc(O)c2ncc(N3CCN(Cc4ccccc4)CC3)cc12: n

Form field: Curve Class at least -2? Entry: O=c1oc2ccccc2c(O)c1C(CC(O)c1ccc(-c2ccc(Br)cc2)cc1)c1ccccc1 (stereo not shown)
n

Form field: Curve Class at least -2? Entry: `CC(=O)Nc1sc2c(c1-c1nc3ccccc3s1)CCN(C(C)C)C2`
n

Form field: Curve Class at least -2? Entry: `O=C(O)C(F)(F)F.OCc1ccc(-c2ccc3ncnc(N4CCOCC4)c3c2)o1`
n

Form field: Curve Class at least -2? Entry: Cc1cc(C2N=C(Nc3nc4ccccc4o3)NC3=C2C(=O)CCC3)n[nH]1.O=C(O)C(F)(F)F (stereo not shown)
n

Form field: Curve Class at least -2? Entry: CC(OC(=O)c1ccc(S(C)(=O)=O)c([N+](=O)[O-])c1)C(=O)NC1C2CC3CC(C2)CC1C3 (stereo not shown)
y

Form field: Curve Class at least -2? Entry: `Oc1c(Br)cc(Br)c2cccnc12`
n

Form field: Curve Class at least -2? Entry: `NS(=O)(=O)c1ccc(Cc2c(-c3ccc(F)c(-c4ccc(F)cc4)c3)nn(-c3nc(C(=O)O)cs3)c2C2CC2)cc1F.O=C(O)C(F)(F)F`
n

Form field: Curve Class at least -2? Entry: `CNC[C@H](O)c1cccc(O)c1`
y

Form field: Curve Class at least -2? Entry: `CC(=O)Oc1cccc2c1C(=O)c1c(OC(C)=O)cc(C(=O)O)cc1C2=O`
n

Form field: Curve Class at least -2? Entry: `O=C(Nc1nc(-c2ccccc2)cs1)c1ccncc1NS(=O)(=O)c1ccc(F)cc1Cl.O=C(O)C(F)(F)F`
n

Form field: Curve Class at least -2? Entry: `CN1CCN(c2ccc(NC(=O)CN(C)Cc3c(O)ccc4ccccc34)cc2)CC1.O=C(O)C(F)(F)F`
n
